All figures here come from patent US20060116368A1.

# study.target: hVR1 receptors (Homo sapiens)
# Construct: expressed in transfected cells; host or cells: HEK293
# Sequence (Q8NER1 whole entry): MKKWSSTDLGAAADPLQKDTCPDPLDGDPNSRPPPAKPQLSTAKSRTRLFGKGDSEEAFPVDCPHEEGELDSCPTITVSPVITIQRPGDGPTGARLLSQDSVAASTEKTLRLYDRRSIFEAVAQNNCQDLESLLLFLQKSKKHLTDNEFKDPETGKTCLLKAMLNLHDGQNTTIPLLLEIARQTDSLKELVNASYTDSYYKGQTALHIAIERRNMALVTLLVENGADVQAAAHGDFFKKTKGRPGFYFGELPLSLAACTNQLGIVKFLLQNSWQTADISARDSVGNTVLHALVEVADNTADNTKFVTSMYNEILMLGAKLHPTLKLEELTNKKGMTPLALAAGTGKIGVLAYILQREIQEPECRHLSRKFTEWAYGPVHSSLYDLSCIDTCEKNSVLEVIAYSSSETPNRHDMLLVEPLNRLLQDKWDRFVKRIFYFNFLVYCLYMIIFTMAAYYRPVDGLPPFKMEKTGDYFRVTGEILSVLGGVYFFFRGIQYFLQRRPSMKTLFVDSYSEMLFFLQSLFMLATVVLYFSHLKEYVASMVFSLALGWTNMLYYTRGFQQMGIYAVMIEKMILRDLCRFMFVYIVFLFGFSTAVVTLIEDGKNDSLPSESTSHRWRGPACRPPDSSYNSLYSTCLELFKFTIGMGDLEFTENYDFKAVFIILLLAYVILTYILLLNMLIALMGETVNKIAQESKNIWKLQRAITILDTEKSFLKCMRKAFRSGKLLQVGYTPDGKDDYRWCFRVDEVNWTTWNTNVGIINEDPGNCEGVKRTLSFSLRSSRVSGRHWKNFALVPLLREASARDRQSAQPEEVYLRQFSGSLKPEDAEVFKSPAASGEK
# test: Human VR1 binding assay ([3H]RTX)
# assay.setup: 1 uM; inhibition of [3H]RTX binding; membranes of HEK293 cells transfected with human VR1
Recorded measurements of h Binding % I (1 uM), one per entry
Answer with a number only, understood to be in %.

Example cases with answers are listed next.
O=C(Nc1cccc2[nH]ccc12)C1CCN(c2cccc(C(F)(F)F)c2)CC1 [Example 8]; 87.0
O=C(Nc1cnc2ccccc2c1)C1CCN(c2ccccc2Br)CC1 [Example 53]; 47.3
O=C(Nc1ccc2ncsc2c1)C1CCN(c2cccc(C(F)(F)F)c2)CC1 [Example 13]; 47.7
O=C(Nc1cccc2[nH]ccc12)C1CCN(c2cccc(C(F)(F)F)c2)CC1 [Example 21]; 86.9
CC(=O)N1CCc2ccc(NC(=O)C3CCN(c4cccc(C(F)(F)F)c4)CC3)cc21 [Example 16]; 15.0

Input CC(=O)N1CCc2cccc(NC(=O)C3CCN(c4cccc(C(F)(F)F)c4)CC3)c21 [Example 9] . Output h Binding % I (1 uM): 4.8

Input CC(=O)c1cc2c(cc1NC(=O)C1CCN(c3cccc(C(F)(F)F)c3)CC1)OCO2 [Example 33] . Output h Binding % I (1 uM): 12.8

Input Cc1ccc(N2CCC(C(=O)Nc3cnc4ccccc4c3)CC2)cc1C [Example 6] . Output h Binding % I (1 uM): 66.5

* * *

Recorded measurements of inhibition at 9 µM, one per entry
# study.target: Human Vanilloid Receptor 1 (Homo sapiens)
# Construct: expressed in transfected cells; host or cells: HEK 293
# test: Human VR1 functional assay using FLIPR, Protocol 1
# Format: cell-based
# assay.setup: HEK293, 9 uM, inhibition of capsaicin (EC80)-induced calcium response, HEK 293 cells transfected with hVR1, read-out: h % I (9 uM)
Answer with a number only, understood to be in %.

O=C1COc2ccc(NC(=O)C3CCN(c4ncccc4[N+](=O)[O-])CC3)cc2N1; 28.7
O=C(Nc1nsc2ccc([N+](=O)[O-])cc12)C1CCN(c2cccc(C(F)(F)F)c2)CC1; 2.5

Input O=C(Nc1ccc2ncsc2c1)C1CCN(c2cccc(C(F)(F)F)c2)CC1 . Output inhibition at 9 µM: 88

Input Cc1cc(C)c2c(NC(=O)C3CCN(c4cccc(C(F)(F)F)c4)CC3)csc2n1 . Output inhibition at 9 µM: 12

Input CCOC(=O)c1c(C)nn(-c2ccc(NC(=O)C3CCN(c4cccc(C(F)(F)F)c4)CC3)cn2)c1C . Output inhibition at 9 µM: 14

Input O=C(Nc1cc(-c2ccco2)n[nH]1)C1CCN(c2cccc(C(F)(F)F)c2)CC1 . Output inhibition at 9 µM: 12

Input O=C(Nc1ccc2cc[nH]c2c1)C1CCN(c2cccc(C(F)(F)F)c2)CC1 . Output inhibition at 9 µM: 19

Input O=C(Nc1cc(-c2cccs2)n[nH]1)C1CCN(c2cccc(C(F)(F)F)c2)CC1 . Output inhibition at 9 µM: 9.5

* * *

Recorded measurements of inhibition at 9 µM, one per entry
# study.target: Human Vanilloid Receptor 1 (Homo sapiens, UniProt Q8NER1)
# Construct: expressed in transfected cells; host or cells: HEK 293
# Sequence (Q8NER1 whole entry): as above
# test: Human VR1 functional assay using FLIPR, Protocol 1
# Type: cell-based
# assay.setup: HEK293, 9 uM, inhibition of capsaicin (EC80)-induced calcium response, HEK 293 cells transfected with hVR1, read-out: h % I (9 uM)
# Description: The functional activity of the test compounds was determined by measuring changes in intracellular calcium concentration using FLIPR™ Calcium-3 Assay Kit and FLIPR™ technology. […] The EC50 values of test compounds were calculated based on a test compound-induced calcium response at the 5-minute time point. The IC50 values of compounds were calculated based on a decreased capsaicin-induced calcium response in the presence of test compound.
Answer with a number only, understood to be in %.

Example cases with answers are listed next.
Cc1ccccc1N1CCC(C(=O)Nc2ccc3c(c2)NC(=O)CO3)CC1; 100
CCn1cnc2c(NC(=O)C3CCN(c4cccc(C(F)(F)F)c4)CC3)ncnc21; 5
Cc1ccc(N2CCC(C(=O)Nc3cnc4ccccc4c3)CC2)cc1C; 92.2
O=C1COc2ccc(NC(=O)C3CCN(c4cc(F)c(F)c(F)c4)CC3)cc2N1; 93.3
O=C1COc2ccc(NC(=O)C3CCN(c4ccccc4)CC3)cc2N1; 85

Param item: CC(=O)c1cc2c(cc1NC(=O)C1CCN(c3cccc(C(F)(F)F)c3)CC1)OCO2 ; param system: Human Vanilloid Receptor 1 (Homo sapiens, UniProt Q8NER1); output inhibition at 9 µM: 12.6

* * *

# study.target: Human Vanilloid Receptor 1 (Homo sapiens)
# Construct: expressed in transfected cells; host or cells: HEK 293
# test: Human VR1 functional assay using FLIPR, Protocol 1
# Format: cell-based
# assay.setup: HEK293, 9 uM, inhibition of capsaicin (EC80)-induced calcium response, HEK 293 cells transfected with hVR1, read-out: h % I (9 uM)
Recorded measurements of inhibition at 9 µM, one per entry
Answer with a number only, understood to be in %.

Example cases with answers are listed next.
CC(=O)N1c2cc(NC(=O)C3CCN(c4cccc(C(F)(F)F)c4)CC3)ccc2CC1C (centres unmarked); 46.5
O=C1COc2ccc(NC(=O)C3CCN(c4ccc(F)c(F)c4)CC3)cc2N1; 89

With those in mind, consider the next compound.
Input CC(=O)N1CCc2ccc(NC(=O)C3CCN(c4cccc(C(F)(F)F)c4)CC3)cc21 . Output inhibition at 9 µM: 83

* * *

# study.target: Human Vanilloid Receptor 1 (Homo sapiens, UniProt Q8NER1)
# Construct: expressed in transfected cells; host or cells: HEK 293
# test: Human VR1 functional assay using FLIPR, Protocol 1
# Type: cell-based
# assay.setup: decreased capsaicin (EC80)-induced calcium response, HEK 293 hVR1, read-out: h IC50
The label criterion met is reserved for IC50 strictly under 200 nM; criterion not met covers values equal to or above it.

CC(=O)N1CCc2cccc(NC(=O)C3CCN(c4cccc(C(F)(F)F)c4)CC3)c21; criterion not met
O=C(Nc1ccc2c(c1)OCO2)C1CCN(c2cccc(C(F)(F)F)c2)CC1; criterion not met
Cc1ccccc1N1CCC(C(=O)Nc2ccc3c(c2)NC(=O)CO3)CC1; criterion met
O=C1COc2ccc(NC(=O)C3CCN(c4cc(C(F)(F)F)ccc4C(F)(F)F)CC3)cc2N1; criterion not met

Here is the next item to consider.
stdin: Is IC50 strictly under 200 nM for the entry O=C1COc2ccc(NC(=O)C3CCN(c4ccccc4Br)CC3)cc2N1 ?
stdout: criterion met

* * *

# study.target: Human Vanilloid Receptor 1 (Homo sapiens)
# Construct: expressed in transfected cells; host or cells: HEK 293
# test: Human VR1 functional assay using FLIPR, Protocol 1
# Format: cell-based
# assay.setup: decreased capsaicin (EC80)-induced calcium response, HEK 293 hVR1, read-out: h IC50
The label 1 is reserved for IC50 strictly under 700 nM; 0 covers values equal to or above it.

See these solved cases before continuing.
O=C(Nc1cccc2[nH]ccc12)C1CCN(c2cccc(C(F)(F)F)c2)CC1 [Example 21]; 1
O=C1COc2ccc(NC(=O)C3CCN(c4cccc(F)c4Br)CC3)cc2N1; 1
O=C1COc2ccc(NC(=O)C3CCN(c4cccc(F)c4)CC3)cc2N1; 1

stdin: Is IC50 strictly under 700 nM for the entry O=C1COc2ccc(NC(=O)C3CCN(c4ccccc4)CC3)cc2N1 ?
stdout: 0

stdin: Is IC50 strictly under 700 nM for the entry O=C(Nc1cccc2cn[nH]c12)C1CCN(c2cccc(C(F)(F)F)c2)CC1 ?
stdout: 0

stdin: Is IC50 strictly under 700 nM for the entry O=C(Nc1ccc2[nH]ccc2c1)C1CCN(c2cccc(C(F)(F)F)c2)CC1 ?
stdout: 0

stdin: Is IC50 strictly under 700 nM for the entry O=C1COc2ccc(NC(=O)C3CCN(c4ccccc4Cl)CC3)cc2N1 ?
stdout: 1

stdin: Is IC50 strictly under 700 nM for the entry Cc1c(Cl)cccc1N1CCC(C(=O)Nc2ccc3c(c2)NC(=O)CO3)CC1 ?
stdout: 1

stdin: Is IC50 strictly under 700 nM for the entry O=C(Nc1cnc2ccccc2c1)C1CCN(c2ccccc2Br)CC1 ?
stdout: 1

stdin: Is IC50 strictly under 700 nM for the entry O=C1COc2ccc(NC(=O)C3CCN(c4ccc(F)c(F)c4)CC3)cc2N1 ?
stdout: 0

* * *

# study.target: Human Vanilloid Receptor 1 (Homo sapiens, UniProt Q8NER1)
# Construct: expressed in transfected cells; host or cells: HEK 293
# test: Human VR1 functional assay using FLIPR, Protocol 1
# Type: cell-based
# assay.setup: HEK293, 9 uM, inhibition of capsaicin (EC80)-induced calcium response, HEK 293 cells transfected with hVR1, read-out: h % I (9 uM)
# Protocol: The functional activity of the test compounds was determined by measuring changes in intracellular calcium concentration using FLIPR™ Calcium-3 Assay Kit and FLIPR™ technology. […] The EC50 values of test compounds were calculated based on a test compound-induced calcium response at the 5-minute time point. The IC50 values of compounds were calculated based on a decreased capsaicin-induced calcium response in the presence of test compound.
Recorded measurements of inhibition at 9 µM, one per entry
Field note: include the unit after the figure.

CCc1ccccc1N1CCC(C(=O)Nc2ccc3c(c2)NC(=O)CO3)CC1; 96.3%

Input O=C(Nc1ccc2c(c1)OCCCO2)C1CCN(c2cccc(C(F)(F)F)c2)CC1 . Output inhibition at 9 µM: 77%

Input Cc1c(Cl)cccc1N1CCC(C(=O)Nc2ccc3c(c2)NC(=O)CO3)CC1 . Output inhibition at 9 µM: 90.3%

Input O=C(Nc1cccc2[nH]ccc12)C1CCN(c2cccc(C(F)(F)F)c2)CC1 . Output inhibition at 9 µM: 101%

Input O=C1COc2ccc(NC(=O)C3CCN(c4cc(F)cc(F)c4)CC3)cc2N1 . Output inhibition at 9 µM: 96%
